Numbers sourced from patent EP4585618A1.

In this section, each of the binders is paired with its reported Top.
- target of assay: T1, His-tagged ILT4 protein extracellular domain: ILT4-His (human, UniProt Q8N423 22-460)
- T1 construct: Expressed in 293 cells; also called human ILT4-His protein
- T1 sequence (Q8N423 other isoform, or with tags, fused parts or gaps limits assumed): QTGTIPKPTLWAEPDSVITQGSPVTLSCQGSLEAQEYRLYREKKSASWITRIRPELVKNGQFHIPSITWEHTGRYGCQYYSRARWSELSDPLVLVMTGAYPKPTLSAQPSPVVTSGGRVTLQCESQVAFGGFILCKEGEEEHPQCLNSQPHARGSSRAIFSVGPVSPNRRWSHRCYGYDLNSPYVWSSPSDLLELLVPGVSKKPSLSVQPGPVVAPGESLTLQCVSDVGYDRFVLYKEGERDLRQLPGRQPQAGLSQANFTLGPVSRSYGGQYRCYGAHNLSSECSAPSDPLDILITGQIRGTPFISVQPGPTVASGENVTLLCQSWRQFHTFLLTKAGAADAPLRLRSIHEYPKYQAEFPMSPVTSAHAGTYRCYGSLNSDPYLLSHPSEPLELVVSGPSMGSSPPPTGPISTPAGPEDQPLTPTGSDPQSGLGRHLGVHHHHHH
- assay method text: ELISA, coated ILT4-His 1 µg/mL; Assay 5
Give the number first and the unit second.

chimeric antibody ChP2-B9 (antibody, human IgG4 S228P, kappa, F234A L235A, V domains shown, Murine variable regions with hIgG4(LALA) and CL constant regions; also called M P2-B9) VH: EVQLQQSGPELVKPGASVKISCKASGYTFTDYFMNWVKLSHGKSLEWIGDINPNNGGTSYNQRFKDKVTLTVDKSSSTAYMELRSLTSDSSAVYFCARNGYYDSNYLSYFDVWGTGTTVTVSS VL: DIQMTQSPASLSVSVGETVTITCRASENIYSNLAWYQQKQGKSPQLLVYGATNLADGVPSRFSGSGSGTQYSLKINSLQSEDFGSYYCQHFWDTPYTFGGGTKLEIKR
1.53 absorbance at 450 nm
positive control antibody JTX (sequences from WO2019126514A2) (antibody, human IgG4 S228P, kappa, V domains shown, also called JTX-8064) VH: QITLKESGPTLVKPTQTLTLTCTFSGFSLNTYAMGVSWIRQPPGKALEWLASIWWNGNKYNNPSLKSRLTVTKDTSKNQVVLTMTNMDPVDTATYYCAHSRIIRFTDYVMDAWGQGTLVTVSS VL: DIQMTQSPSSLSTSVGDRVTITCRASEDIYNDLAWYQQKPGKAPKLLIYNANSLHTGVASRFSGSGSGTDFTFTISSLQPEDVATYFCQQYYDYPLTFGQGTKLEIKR
1.14 absorbance at 450 nm
chimeric antibody ChP2-C2 (antibody, human IgG4 S228P, kappa, F234A L235A, V domains shown, Murine variable regions with hIgG4(LALA) and CL constant regions; also called M P2-C2) VH: QVQLKQSGPGLVQPSQSLSITCTVSGFSLTSYGVHWVRQSPGKGLEWLGVIWSGGHTDLNAAFISRLSINKDNSKSQVFFKMNSLQGDDTAIYYCARNGYGGCLDYWGQGTTLTVSS VL: DIVMTQSHKFMSTSVGDRVSITCKAGQDVSIAVAWYQQKPGQSPQLLIYSASYRYTGVPDRFTGSGSGTDFTFAISSVQAEDLAVYYCQQYYSIPPSFGAGTKLEIKR
1.16 absorbance at 450 nm

Would you kindly look at the next entry?
Request: Endpoint output: Top of chimeric antibody ChP2-E10 (antibody, human IgG4 S228P, kappa, F234A L235A, V domains shown, Murine variable regions with hIgG4(LALA) and CL constant regions; also called M P2-E10) VH: DVQLQESGPGLVKPSQSLSLTCSVTGYSITSGYYWNWIRQFPGNKLEWMGYMSYEGTNNSNPSLKNRISITRDTSKNQFFLKLNSVTTEDTARYYCARERAYYYGTLGAMDYWGQGTSVTVSS VL: DIQMTQSPASLSVSVGETVTITCRASENIYSNLAWYQQKQGKSPQLLVYAATNLADGVPSRFSGSGSGTQYSLKINSMQSEDFGSYYCQHFWDTPFTFGSGTKLEIKR . Value?
Result: 1.65 absorbance at 450 nm
